- Assay Info: visual solubility test (apparent solubility in different excipients)
- Assay type: physicochemical
- Measurement Parameters: HP-β-CD, aqueous with cosolvent or surfactant or cyclodextrin, thermodynamic from solid, in HP-β-CD
Quantity: solubility (µg/mL)
Write the value in µg/mL as a bare number.

Quick one: solubility for CC(=O)N1CCN(C(=O)c2ccc(Nc3nccc(-c4ccc(Cl)cc4)n3)cc2)CC1 ? 5750

* * *

- Assay Info: visual solubility test (apparent solubility in different excipients)
- Type: physicochemical
- Measurement Parameters: Transcutol HP, organic solvent or mixture, thermodynamic from solid, in Transcutol HP
Quantity: solubility (mg/mL)
Write the value in mg/mL as a bare number.

Quick one: solubility for CC(=O)N1CCN(C(=O)c2ccc(Nc3nccc(-c4ccc(Cl)cc4)n3)cc2)CC1 ? 26.2

* * *

- Assay Info: visual solubility test (apparent solubility in different excipients)
- Format: physicochemical
- Measurement Parameters: Capmul GMO-50, oil or lipid, thermodynamic from solid, in Capmul GMO-50
Quantity: solubility

Quick one: solubility for CC(=O)N1CCN(C(=O)c2ccc(Nc3nccc(-c4ccc(Cl)cc4)n3)cc2)CC1 ? 20.2 mg/mL

* * *

- Assay Info: visual solubility test (apparent solubility in different excipients)
- Format: physicochemical
- Measurement Parameters: Lutrol E600 (PEG 600), organic solvent or mixture, thermodynamic from solid, in Lutrol E600 (PEG 600)
Quantity: solubility (mg/mL)
Write the value in mg/mL as a bare number.

Quick one: solubility for CC(=O)N1CCN(C(=O)c2ccc(Nc3nccc(-c4ccc(Cl)cc4)n3)cc2)CC1 ? 104
